The values you see were collected from the supplement of paper PMC10307832.

# Tested on: HOP-62
# experimental-details: relative viability (nuclei count vs DMSO), 5 days (fraction); higher = more cells survive
# test-parameters: first compound 0.1 µM
Assign relative viability to each entry below.
Lab note: write the figure by itself, no unit.

// lookup relative viability for NC(=O)Nc1cc(-c2cccc(F)c2)sc1C(=O)N[C@H]1CCCNC1 [AZD7762] + O=C(c1cc(Cc2n[nH]c(=O)c3ccccc23)ccc1F)N1CCN(C(=O)C2CC2)CC1 [Olaparib] (partner 8 µM)
0.313

Return reported relative viability; argument: NC(=O)Nc1cc(-c2cccc(F)c2)sc1C(=O)N[C@H]1CCCNC1 [AZD7762] + CCNC(=O)c1noc(-c2cc(C(C)C)c(O)cc2O)c1-c1ccc(CN2CCOCC2)cc1 [Luminespib] (partner 0.01 µM)
0.606

Given the entry NC(=O)Nc1cc(-c2cccc(F)c2)sc1C(=O)N[C@H]1CCCNC1 [AZD7762] + COc1cccc2cc(-c3nc([C@H]4CC[C@H](C(=O)O)CC4)n4ncnc(N)c34)[nH]c12 [OSI-027] (partner 0.5 µM) , report its measured relative viability.
0.743

# get_value(readout='relative viability', item= NC(=O)Nc1cc(-c2cccc(F)c2)sc1C(=O)N[C@H]1CCCNC1 [AZD7762] + CS(=O)(=O)CCNCc1ccc(-c2ccc3ncnc(Nc4ccc(OCc5cccc(F)c5)c(Cl)c4)c3c2)o1 [Lapatinib] (partner 2 µM) )
1.27

Quick check: relative viability of NC(=O)Nc1cc(-c2cccc(F)c2)sc1C(=O)N[C@H]1CCCNC1 [AZD7762] + CC(C)C[C@H](NC(=O)[C@H](Cc1ccccc1)NC(=O)c1cnccn1)B(O)O [Bortezomib] (partner 0.002 µM) ?
0.491

---

# System: 201T
# experimental-details: relative viability (nuclei count vs DMSO), 5 days (fraction); higher = more cells survive
# test-parameters: first compound 1.265 µM
Provide the recorded relative viability for the entries that follow.
Would you mind answering with just the numeric figure?

What value of relative viability has been recorded for this entry: O=C(O)c1ccc(-c2c[nH]c3ncc(-c4ccccc4)cc23)cc1C1CCCC1 + Cc1cc(Nc2cc(N3CCN(C)CC3)nc(Sc3ccc(NC(=O)C4CC4)cc3)n2)n[nH]1 [Tozasertib] (partner 0.1 µM)
0.771

Need relative viability of O=C(O)c1ccc(-c2c[nH]c3ncc(-c4ccccc4)cc23)cc1C1CCCC1 + NC(=O)Nc1cc(-c2cccc(F)c2)sc1C(=O)N[C@H]1CCCNC1 [AZD7762] (partner 0.2 µM) , thanks.
0.663

If you can, please state the reported relative viability value of O=C(O)c1ccc(-c2c[nH]c3ncc(-c4ccccc4)cc23)cc1C1CCCC1 + CCNC(=O)c1noc(-c2cc(C(C)C)c(O)cc2O)c1-c1ccc(CN2CCOCC2)cc1 [Luminespib] (partner 0.01 µM) .
0.987

If you can, please state the reported relative viability value of O=C(O)c1ccc(-c2c[nH]c3ncc(-c4ccccc4)cc23)cc1C1CCCC1 + Cc1nc(Nc2ncc(C(=O)Nc3c(C)cccc3Cl)s2)cc(N2CCN(CCO)CC2)n1 [Dasatinib] (partner 0.075 µM) .
0.534

I'd like to know its relative viability. The compound in question is O=C(O)c1ccc(-c2c[nH]c3ncc(-c4ccccc4)cc23)cc1C1CCCC1 + COc1cccc2cc(-c3nc([C@H]4CC[C@H](C(=O)O)CC4)n4ncnc(N)c34)[nH]c12 [OSI-027] (partner 0.5 µM)
0.716

# query: relative viability of entry O=C(O)c1ccc(-c2c[nH]c3ncc(-c4ccccc4)cc23)cc1C1CCCC1 + Nc1ncn([C@H]2C[C@H](O)[C@@H](CO)O2)c(=O)n1 [Decitabine] (partner 2 µM)
0.811

Reported relative viability, compound O=C(O)c1ccc(-c2c[nH]c3ncc(-c4ccccc4)cc23)cc1C1CCCC1 + C[C@]1(O)C[C@@H](c2nc(-c3ccc4ccc(-c5ccccc5)nc4c3)c3c(N)nccn32)C1 [Linsitinib] (partner 1 µM) : ____
0.946
